- target.under.test: human progesterone receptor B (Homo sapiens, UniProt P06401)
- Construct: expressed in transfected cells; host or cells: SK-N-MC human neuroblastoma cells, stably transfected with pRChPR-B-neo and pMMTV-LUC
- Sequence (P06401 1-933): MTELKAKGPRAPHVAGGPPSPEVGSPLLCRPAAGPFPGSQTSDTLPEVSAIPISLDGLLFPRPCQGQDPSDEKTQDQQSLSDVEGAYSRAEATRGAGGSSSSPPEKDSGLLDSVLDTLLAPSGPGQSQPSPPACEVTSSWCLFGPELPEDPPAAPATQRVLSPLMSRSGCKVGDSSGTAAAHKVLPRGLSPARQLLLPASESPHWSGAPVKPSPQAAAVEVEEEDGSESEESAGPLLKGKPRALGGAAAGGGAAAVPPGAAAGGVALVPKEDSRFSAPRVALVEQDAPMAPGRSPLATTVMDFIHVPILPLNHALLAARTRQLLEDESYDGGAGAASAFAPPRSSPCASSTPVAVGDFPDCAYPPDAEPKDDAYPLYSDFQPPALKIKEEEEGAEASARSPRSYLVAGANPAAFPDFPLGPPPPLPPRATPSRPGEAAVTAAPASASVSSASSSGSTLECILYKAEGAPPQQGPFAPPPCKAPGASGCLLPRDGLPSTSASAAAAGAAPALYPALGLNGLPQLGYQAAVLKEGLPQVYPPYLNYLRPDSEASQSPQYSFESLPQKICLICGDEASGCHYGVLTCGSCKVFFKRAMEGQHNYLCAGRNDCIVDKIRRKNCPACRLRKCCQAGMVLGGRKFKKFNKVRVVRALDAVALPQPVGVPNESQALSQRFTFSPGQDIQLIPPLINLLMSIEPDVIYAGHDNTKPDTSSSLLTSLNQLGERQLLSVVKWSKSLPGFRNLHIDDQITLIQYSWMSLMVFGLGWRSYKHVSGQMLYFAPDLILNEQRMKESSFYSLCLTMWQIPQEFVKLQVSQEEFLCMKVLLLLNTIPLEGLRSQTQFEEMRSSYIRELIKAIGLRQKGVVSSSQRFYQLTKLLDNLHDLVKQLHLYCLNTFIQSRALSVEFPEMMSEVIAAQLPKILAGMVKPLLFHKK
- protocol.description: Progesterone receptor-antagonistic action in stably transfected SK-N-MC cells, PR-B, MMTV-LUC reporter
- Type: cell-based
- experimental.context: read-out: IC50 PR-B
pIC50: −log10 of the molar value.
Label criterion met for high-side pIC50 (at or above 10) and criterion not met for low-side pIC50 (below it).

Lookup: Quick check, pIC50 >= 10? `COC(=O)c1ccc(C#Cc2ccc([C@H]3C[C@@]4(C)[C@@H](CC[C@@]4(O)C(F)(F)C(F)(F)F)[C@@H]4CCC5=CC(=O)CCC5=C43)cc2)cc1`
Found: criterion not met

Lookup: Quick check, pIC50 >= 10? `C[C@]12C[C@H](c3ccc(C#CCOCCO)cc3)C3=C4CCC(=O)C=C4CC[C@H]3[C@@H]1CC[C@@]2(O)C(F)(F)C(F)(F)F`
Found: criterion not met

Lookup: Quick check, pIC50 >= 10? CCOC(=O)CCNC(=O)NCC#Cc1ccc([C@H]2C[C@@]3(C)C(CC[C@@]3(O)C(F)(F)C(F)(F)F)C3CCC4=CC(=O)CCC4=C32)cc1 (stereo partly shown)
Found: criterion not met

Lookup: Quick check, pIC50 >= 10? C[C@]12C[C@H](c3ccc(C#CCOC(=O)Nc4ccc(Cl)cc4)cc3)C3=C4CCC(=O)C=C4CCC3C1CC[C@@]2(O)C(F)(F)C(F)(F)F (stereo partly shown)
Found: criterion not met

Lookup: Quick check, pIC50 >= 10? Cc1ccc(NC(=O)OCC#Cc2ccc([C@H]3C[C@@]4(C)C(CC[C@@]4(O)C(F)(F)C(F)(F)F)C4CCC5=CC(=O)CCC5=C43)cc2)cc1 (stereo partly shown)
Found: criterion met
